Origin of measurements: patent US20070275911A1

Tested on: MDA-MB-435
assay.notes: Breast cancer cell growth inhibition, 4 h treatment
run.parameters: MDA-MB-435 (−/+/−), 4 h treatment
measurement.name: pIC50
The scale used: pIC50 is minus the common logarithm of the concentration in molar units.

Output measured pIC50 for this item: COc1cccc2c1C(=O)c1c(O)c3c(c(O)c1C2=O)C[C@@](O)(C(=O)CO)C[C@@H]3O[C@H]1C[C@H](NCNC(=O)c2ccccc2O)[C@H](O)[C@H](C)O1 [doxsaliform]
7.30

* * *

System: MDA-MB-435
assay.notes: Breast cancer cell growth inhibition, 4 h treatment
run.parameters: Homo sapiens, MDA-MB-435, 4 h
measurement.name: pIC50
The scale used: pIC50 is minus the common logarithm of the concentration in molar units.

Report value: pIC50, system: MDA-MB-435, molecule: COc1cccc2c1C(=O)c1c(O)c3c(c(O)c1C2=O)C[C@@](O)(C(=O)CO)C[C@@H]3O[C@H]1C[C@H](N)[C@H](O)[C@H](C)O1 [doxorubicin, reference compound]
6.82

* * *

What IC50 was measured for each of the following?
assay.target: ανβ3 integrin present on viable MDA-MB-435 cells (Homo sapiens, UniProt P05106+P06756)
Construct: endogenous in cells
assay.notes: Vitronectin cell adhesion (competition) assay
Assay type: cell-based
run.parameters: MDA-MB-435 cell binding to vitronectin, 500 μM Mn2+; read-out: IC50 for inhibition of cell binding

Output measured IC50 for this item: COc1cccc2c1C(=O)c1c(O)c3c(c(O)c1C2=O)C[C@@](O)(C(=O)CO)C[C@@H]3O[C@H]1C[C@H](NCNC(=O)c2ccccc2O)[C@H](O)[C@H](C)O1 [doxsaliform]
> 10 µM

Output measured IC50 for this item: COc1cccc2c1C(=O)c1c(O)c3c(c(O)c1C2=O)C[C@@](O)(C(=O)CO)C[C@@H]3O[C@H]1C[C@H](N)[C@H](O)[C@H](C)O1 [doxorubicin, reference compound]
> 10 µM
